- target.desc: NA (neuraminidase) used in the NA activity inhibition experiments of Example 9
- run.description: cell-based or functional assay
quantity.name: IC50, inhibition of NA activity (µg/mL)
One number for each entry, in µg/mL.

-- ask If you can, please state the reported IC50, inhibition of NA activity value of plant-produced humanized 2B9 antibody G5K3 (antibody, V domains shown) VH: QVQLVQSGSELKKPGASVKVSCKAAGYTFTNYWIGWVRQAPGQGLEWIGDIYPENDFSNYNEKFKDRVTITADTSTSTAYMELSSLRSEDTAVYYCVRANEGWYLDVWGQGTTVTVSS VL: DIQMTQSPSSLSASVGDRVTITCRASENIYSYLAWYQQKPGKAPKLLVYFAKTLAEGVPSRFSGSGSGTEFTLTISSLQPDDFANYYCQHHYGTPYTFGQGTKLEIKR .
-- reply 0.45
